# hEPO annotations
Tested on: hEPO
Assay: Quantification of hEPO in serum after IV injection of mRNA (Human EPO ELISA)
Type: in vivo
Conditions: Balb/c mice, 2.5 μg mRNA IV, serum after 6 hours
Non-standard residues stand in square brackets, D forms with d. Residues, ends and D or L forms follow the SMILES beside them. *: point of attachment. N(3-lauroyloxypropyl)Gly = CCCCCCCCCCCC(=O)OCCCNCC(=O)O; N(2-decanoyloxyethyl)Gly = CCCCCCCCCC(=O)OCCNCC(=O)O; Gly(N-(CH2)3O-octanoyl) = CCCCCCCC(=O)OCCCNCC(=O)O; N(3-imidazol-1-ylpropyl)Gly = O=C(O)CNCCCn1ccnc1; Gly(N-3-morpholinopropyl) = O=C(O)CNCCCN1CCOCC1; N(2-ethylhexyl)Gly = CCCCC(CC)CNCC(=O)O; Gly(N-dodecyl) = CCCCCCCCCCCCNCC(=O)O; N(CH(CH2OH)2)Gly = O=C(O)CNC(CO)CO; For = O=C*
Please state the figure in ng/mL; there is no need to write the unit.

Sample answers from the record:
# compound, hEPO, ng/mL
data = [
    ("CCCCCCCCCCCCN(C=O)CC(=O)N(CCCOC(=O)CCCCCCCCCCC)CC(=O)N(CC(=O)N(CCCn1ccnc1)CC(=O)N(CC(=O)N(CCCOC(=O)CCCCCCCCCCC)CC(=O)N(CCCCCCCCCCCC)CC(N)=O)CC(CC)CCCC)CC(CC)CCCC (centres unmarked) [Compound 85] (For-[Gly(N-dodecyl)][N(3-lauroyloxypropyl)Gly][N(2-ethylhexyl)Gly][N(3-imidazol-1-ylpropyl)Gly][N(2-ethylhexyl)Gly][N(3-lauroyloxypropyl)Gly][Gly(N-dodecyl)]-NH2)", 26.3),
    ("CCCCCCCCCC(=O)OCCN(CC(N)=O)C(=O)CN(CCOC(=O)CCCCCCCCC)C(=O)CN(CC(CC)CCCC)C(=O)CN(CCOC(=O)CCCCCCCCC)C(=O)CN(CCOC(=O)CCCCCCCCC)C(=O)CN(CC(CC)CCCC)C(=O)CNC(CO)CO (centres unmarked) [Compound 105] (H-[N(CH(CH2OH)2)Gly][N(2-ethylhexyl)Gly][N(2-decanoyloxyethyl)Gly][N(2-decanoyloxyethyl)Gly][N(2-ethylhexyl)Gly][N(2-decanoyloxyethyl)Gly][N(2-decanoyloxyethyl)Gly]-NH2)", 580),
    ("CCCCCCCCCC(=O)OCCN(CC(N)=O)C(=O)CN(CC(CC)CCCC)C(=O)CN(CCOC(=O)CCCCCCCCC)C(=O)CN(CCOC(=O)CCCCCCCCC)C(=O)CN(CC(CC)CCCC)C(=O)CN(CCOC(=O)CCCCCCCCC)C(=O)CNC(CO)CO (centres unmarked) [Compound 56] (H-[N(CH(CH2OH)2)Gly][N(2-decanoyloxyethyl)Gly][N(2-ethylhexyl)Gly][N(2-decanoyloxyethyl)Gly][N(2-decanoyloxyethyl)Gly][N(2-ethylhexyl)Gly][N(2-decanoyloxyethyl)Gly]-NH2)", 551),
    ("CCCCCCCCCCCC(=O)OCCCN(CC(=O)N(CC(=O)N(CC(=O)N(CCCn1ccnc1)CC(=O)N(CC(=O)N(CC(=O)N(CCCOC(=O)CCCCCCCCCCC)CC(=O)N(CC(N)=O)CC(CC)CCCC)Cc1ccco1)CC(CC)CCCC)CC(CC)CCCC)Cc1ccco1)C(=O)CN(C=O)CC(CC)CCCC (centres unmarked)", 59.4),
]

Exercise: Query (compound): CCCCCCCCCCCCN(C=O)CC(=O)N(CCCOC(=O)CCCCCCC)CC(=O)N(CC(=O)N(CCCN1CCOCC1)CC(=O)N(CC(=O)N(CCCOC(=O)CCCCCCC)CC(=O)N(CCCCCCCCCCCC)CC(N)=O)CC(CC)CCCC)CC(CC)CCCC (centres unmarked) [Compound 116] (For-[Gly(N-dodecyl)][Gly(N-(CH2)3O-octanoyl)][N(2-ethylhexyl)Gly][Gly(N-3-morpholinopropyl)][N(2-ethylhexyl)Gly][Gly(N-(CH2)3O-octanoyl)][Gly(N-dodecyl)]-NH2) ; field requested: hEPO
Solution: 269
